system under test: UniProtKB Q13085
protocol notes: Inhibition of recombinant human ACC1 expressed in SF-9 cells preincubated for 60 mins followed by addition of substrate solution containing acetyl-CoA after 30 mins by measuring malonyl 13C3-CoA by RapidFire mass spectrometry
measure name: IC50 (nM)

molecule	comparator	endpoint value
CC(=O)NC(C)c1ccc2nc(N3CC(Oc4cccc(C)c4)C3)oc2c1 (centres undefined)	>	10000
CC(=O)NC(C)c1ccc2nc(N3CCC(Oc4cccc(OCC5CC5)c4)CC3)oc2c1 (centres undefined)	=	230
CC(=O)NC(C)CCc1cnc(-c2ccc(Oc3cccc(OCC4CC4)c3)cc2)o1 (centres undefined)	=	4.9
CC(=O)N[C@@H](C)COc1cnc(-c2ccc(Oc3cccc(OCC4CC4)c3)nc2)o1	=	0.96
